Biological target: human kinase Mps-1 (Homo sapiens, UniProt P33981)
Construct: N-terminally GST-tagged human full length recombinant Mps-1 kinase; GST (N)
Sequence (P33981 whole entry): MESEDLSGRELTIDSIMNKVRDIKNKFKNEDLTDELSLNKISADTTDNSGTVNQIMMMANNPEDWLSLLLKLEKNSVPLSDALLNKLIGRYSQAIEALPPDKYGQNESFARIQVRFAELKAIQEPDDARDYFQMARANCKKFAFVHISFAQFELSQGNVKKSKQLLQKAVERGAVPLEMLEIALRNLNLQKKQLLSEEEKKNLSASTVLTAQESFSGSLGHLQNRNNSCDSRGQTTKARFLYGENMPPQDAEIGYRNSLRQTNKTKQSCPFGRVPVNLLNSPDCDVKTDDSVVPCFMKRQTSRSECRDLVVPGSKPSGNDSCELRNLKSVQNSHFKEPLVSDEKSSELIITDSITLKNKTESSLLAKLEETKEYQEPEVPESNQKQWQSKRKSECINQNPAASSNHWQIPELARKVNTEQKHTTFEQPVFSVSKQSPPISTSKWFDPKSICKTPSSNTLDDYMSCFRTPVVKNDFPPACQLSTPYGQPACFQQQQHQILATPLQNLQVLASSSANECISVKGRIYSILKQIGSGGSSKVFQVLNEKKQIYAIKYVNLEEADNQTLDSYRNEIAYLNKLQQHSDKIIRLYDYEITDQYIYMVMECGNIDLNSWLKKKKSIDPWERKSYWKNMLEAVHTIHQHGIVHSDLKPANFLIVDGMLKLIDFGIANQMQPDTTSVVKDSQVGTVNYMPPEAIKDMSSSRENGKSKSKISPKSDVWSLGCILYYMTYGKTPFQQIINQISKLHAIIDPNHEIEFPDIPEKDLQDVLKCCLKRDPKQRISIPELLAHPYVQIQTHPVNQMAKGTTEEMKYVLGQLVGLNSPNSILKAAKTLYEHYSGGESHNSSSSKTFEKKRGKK
Assay: Mps-1 kinase assay (TR-FRET)
Details: N-terminally GST-tagged human full length recombinant Mps-1; 10 μM ATP; 1 μM peptide substrate; 15 min pre-incubation; 60 min at 22° C.
Protocol: The human kinase Mps-1 phosphorylates a biotinylated substrate peptide. Detection of the phosphorylated product is achieved by time-resolved fluorescence resonance energy transfer (TR-FRET) from Europium-labelled anti-phospho-Serine/Threonine antibody as donor to streptavidin labelled with cross-linked allophycocyanin (SA-XLent) as acceptor. Compounds are tested for their inhibition of the kinase activity. […]
Test readout: IC50 (nM)
Express your answer in nM, writing the number without its unit.

// solved cases for IC50 follow
compound="CC(C)CNc1nc(-c2cccc(F)c2)cn2c(-c3ccc(C(=O)NC4CC4)cc3)cnc12 [Example 1-40]" result=6.9
compound="CC(C)CNc1nc(-c2ccc(F)c(F)c2)cn2c(-c3ccc(C(=O)NC4CC4)cc3)cnc12 [Example 1-63]" result=7.7

Now look at this one.
response.value for Cc1cc(-c2cn3c(-c4ccc(C(=O)NC5CC5)cc4)cnc3c(NCC(C)(C)O)n2)ccc1F [Example 1-135] (field: IC50) = 8.4
